- method notes: Selectivity index, ratio of IC50 for human […] cells to IC50 for Plasmodium falciparum FCR-3
- Assay type: toxicity, cell-based
- study conditions: MCR5 cells (cytotoxicity) versus Plasmodium falciparum FCR-3, read-out: Ratio IC50
Exam item: assign label 1 to entries whose selectivity ratio is below 500 and label 0 to entries at or above 500. Note that a value of exactly 500 receives label 0.

Query: For `C[C@@H]1C[C@H](C)C[C@H](C)[C@@H](O)CC(=O)O[C@H]([C@@H]2CCC[C@H]2C(=O)N[C@@H](CO)C(=O)O)C/C=C/C=C(/C#N)[C@H](O)[C@@H](C)C1` , is the recorded selectivity ratio below the cut-off of 500?
Reply: label 0

Query: What do you get for `CC(=O)O[C@H]1CC(=O)O[C@H]([C@@H]2CCC[C@H]2C(=O)O)C/C=C/C=C(/C#N)[C@H](OC(C)=O)[C@@H](C)C[C@H](C)C[C@H](C)C[C@@H]1C` ?
Reply: label 1

Query: What do you get for `C[C@@H]1C[C@H](C)C[C@H](C)[C@@H](O)CC(=O)O[C@H]([C@@H]2CCC[C@H]2C(=O)OCc2cn(-c3cnc4ccccc4c3)nn2)C/C=C/C=C(/C#N)[C@H](O)[C@@H](C)C1` ?
Reply: label 0

Query: What do you get for `C[C@@H]1C[C@H](C)C[C@H](C)[C@@H](O)CC(=O)O[C@H]([C@@H]2CCC[C@H]2C(=O)OCc2cn(-c3ccc(C(=O)O)cc3)nn2)C/C=C/C=C(/C#N)[C@H](O)[C@@H](C)C1` ?
Reply: label 1

Query: What do you get for `C[C@@H]1C[C@H](C)C[C@H](C)[C@@H](O)CC(=O)O[C@H]([C@@H]2CCC[C@H]2C(=O)OCc2cn(CSc3ccccc3)nn2)C/C=C/C=C(/C#N)[C@H](O)[C@@H](C)C1` ?
Reply: label 0

Query: What do you get for `CCSC(=O)[C@@H]1CCC[C@H]1[C@@H]1C/C=C/C=C(/C#N)[C@H](O)[C@@H](C)C[C@H](C)C[C@H](C)C[C@H](C)[C@@H](O)CC(=O)O1` ?
Reply: label 0

Query: What do you get for C[C@@H]1C[C@H](C)C[C@H](C)[C@@H](O)CC(=O)O[C@H]([C@@H]2CCC[C@H]2C(=O)O)CCCCC(C#N)[C@H](O)[C@@H](C)C1 (some centres not stated) ?
Reply: label 1
